Test system: MALME-3M melanoma
assayInfo: NCI-60 one-dose screen, 48 h
experimentalConditions: 10 µM unless noted
Compounds without any hit were thinned out: in the full panel of roughly 83,000, 20% have a hit. The source made the active and inactive calls. The calls were made as follows: active = growth percent below 10; inactive = the rest.
Please answer using one outcome listed in true (active), false (inactive)

Input: How was CCCCC(O)(c1ccc(Cl)cc1)C(CN1CCOCC1)c1ccc(Cl)cc1 (stereo not given) classified in this test?
Output: false

Input: Hello, I am checking results. What call was entered for CNCCNc1nc2ccccc2c2c(=O)c3cccc(C)c3sc12 ?
Output: true

Input: Would you mind telling me which call this test gave COc1ccc(-c2nc(-c3ccccn3)c(-c3ccccn3)n2CC(C)C)cc1OC1CCCC1 ?
Output: false

Input: Tell me the recorded outcome of this test for Fc1ccc(Oc2ccc(Nc3ncnc4onc(-c5ccccc5)c34)cc2)cc1 .
Output: false

Input: GET /call?item= COc1ccc(/C=C2\CCC/C(=C\c3ccc(OC)c(OC)c3)C2=O)cc1OC returns the recorded outcome of this test.
Output: false

* * *

I'd be grateful if you could share measured growth for these entries.
Test system: MALME-3M melanoma
assayInfo: NCI-60 one-dose screen, 48 h (100 = growth as untreated, 0 = no growth, -100 = all killed)
experimentalConditions: 10 µM unless noted
About 83,000 compounds went through this panel and 20% of them were active in at least one assay; those are over-represented in the sample as a whole.
Value expressed in %; do not type the unit.

Input: For the molecule COc1cc(/C=C/C(=O)c2ccc(Cl)cc2)cc(CN2CCCCC2)c1O , what growth is on record?
Output: 82.2

Input: Recorded growth for CCCCCCCCCCCCCCn1cc(C2=C(c3coc4ccc(OC)cc34)C(=O)NC2=O)c2ccccc21 , please?
Output: 107

Input: Please look up its growth: O=C(NCc1ccccc1)C1CN(c2ccc(Cl)cc2)N(c2ccc(Cl)cc2)C1=O (stereo not given)
Output: 73.8

Input: Find the recorded growth belonging to O=c1oc2ccc(-c3ccc(F)cc3F)cc2c(=O)n1-c1cccc(C(F)(F)F)c1 and report it.
Output: -24

Input: Please give the measured growth for this molecule: O=c1oc2ccc(F)cc2c(=O)n1-c1ccc(I)cc1F
Output: -22.1

Input: Item under review: CCCCCCCCCCOC(=O)c1ccccc1C(=O)OCCCC . Reported growth?
Output: 157

Input: Item under review: COc1cc(/C=C/C(=O)c2ccc(Nc3nc(NCCO)nc(N4CCOCC4)n3)cc2)cc(OC)c1OC . Reported growth?
Output: 40

Input: Entry CCN(CC)CCNC(=O)C(Cl)=C1C(Cl)=C(Cl)C(Cl)=C1Cl : reported growth = ?
Output: 58

Input: If you can, please state the reported growth value of CCOC(=O)c1cnc2c(C)cccc2c1Nc1ccc(C(C)=O)cc1 .
Output: -81

Input: growth for O=C1c2cc(Cl)ccc2Oc2cc([N+](=O)[O-])ccc2N1c1ccc(F)cc1F ?
Output: 103

* * *

Tested on: A498 renal
assayInfo: NCI-60 one-dose screen, 48 h (100 = growth as untreated, 0 = no growth, -100 = all killed)
experimentalConditions: 10 µM unless noted
Method: Growth inhibition of the A498 human tumor cell line is measured as a screen for anti-cancer activity. Cells are grown in 96 well plates and exposed to the test compound for 48 hours. Compounds are tested at a single concentration, which is 10^-5 M for most compounds. The reported endpoint is percent growth (GI% or GIPRCNT), where numbers from 0 - 100% represent growth inhibition, and numbers from -100% - 0 represent cell death. For example, a value of 40 represents 60% growth inhibition. […]
The panel holds about 83,000 compounds, 20% with a hit somewhere; the sample as a whole holds those more often.
Please note: growth exactly at 80% is Not fulfilled. Only values below 80% get Fulfilled.

Input: growth under 80%? Item: O=c1oc2ccc(Cl)cc2c(=O)n1-c1cc(C(F)(F)F)cc(C(F)(F)F)c1
Output: Fulfilled

Input: Determine whether this molecule shows growth lower than 80% (ties excluded): COc1ccc(N)c(-c2cc3c(c4c2[nH]c2ccc(OC)cc24)CCCC3)c1
Output: Not fulfilled

Input: Does O=C(Nc1ccsc1C(=O)NC1CCCCC1)c1ccc(F)cc1 have growth strictly under 80%?
Output: Not fulfilled

Input: Please state whether growth is below 80% for O=C(NCc1ccco1)C1CN(c2ccc(Cl)cc2)N(c2ccc(Cl)cc2)C1=O (stereo not given)
Output: Fulfilled

Input: Answer whether the molecule CCOC(=O)C1=C(C)N=c2s/c(=C\c3cc(Cl)ccc3O)c(=O)n2C1c1ccc(OC)cc1 (stereo not given) has growth strictly less than 80%
Output: Fulfilled

* * *

Test system: SF-539 CNS
assayInfo: NCI-60 one-dose screen, 48 h (100 = growth as untreated, 0 = no growth, -100 = all killed)
experimentalConditions: 10 µM unless noted
Protocol: Cells are grown in 96 well plates and exposed to the test compound for 48 hours. Compounds are tested at a single concentration, which is 10^-5 M for most compounds. The reported endpoint is percent growth (GI% or GIPRCNT), where numbers from 0 - 100% represent growth inhibition, and numbers from -100% - 0 represent cell death. For example, a value of 40 represents 60% growth inhibition. A value of 0 means no net growth occurred over the course of the experiment. […]
Compounds without any hit were thinned out: in the full panel of roughly 83,000, 20% have a hit.
Would you kindly list growth for each of these molecules?
Give your result in % as a bare value.

Input: What does the data say about its growth? Entry: COc1ccc(S(=O)(=O)N(Cc2ccc3c(n2)C=CC(C)(C)O3)C2CCC2)cc1OC
Output: 0.455

Input: Which measured growth value corresponds to Cc1ccc(S(=O)c2ccc([N+](=O)[O-])c3nonc23)cc1 (stereo not given) ?
Output: 106

Input: // lookup growth for COc1cc(/C=C2\CN(S(=O)(=O)c3ccccc3)C/C(=C\c3cc(CN4CCCC4)c(O)c(OC)c3)C2=O)cc(CN2CCCC2)c1O
Output: -46.6

Input: What value of measured growth is listed for Cn1c(=O)n(C)c2cc(CNCCNc3ccnc4cc(Cl)ccc34)ccc21 ?
Output: 58.9

Input: I am curious: what growth value has been reported for COC(=O)c1c2c(c(C)[n+]([O-])c1C)C(=O)C=C(NCc1ccccc1)C2=O ?
Output: -90.2

Input: Any idea what growth was measured for O=Cc1c(OCc2cnnn2CC(=O)Nc2ccc(Cl)cc2)ccc2ccccc12 ?
Output: 94.5

Input: Data request, read-out growth, for COc1nccc2cc3c(=O)n4c(cc5ccccc54)c(=O)n3c12
Output: 104

Input: Return reported growth; argument: Cc1ccc2cc3c(N)c4c(C)ccc(C)c4nc3nc2c1
Output: -68

Input: What growth value was documented for this molecule, COc1cc(/C=C2\CN(C)C/C(=C\c3cc(CN4CCCCC4)c(O)c(OC)c3)C2=O)cc(CN2CCCCC2)c1O ?
Output: 48.6

Input: Fill in the blank: the reported growth of CCOC(=O)c1cnc2ccc(Cl)cc2c1NCCCN(C)C is ____.
Output: -12.7

* * *

Tested on: NCI/ADR-RES ovarian
assayInfo: NCI-60 one-dose screen, 48 h
experimentalConditions: 10 µM unless noted
The panel holds about 83,000 compounds, 20% with a hit somewhere; the sample as a whole holds those more often. Calls of active or inactive are those of the source. The calls were made as follows: active = growth percent below 10; inactive = the rest.
Choose one outcome from this list and give only that: 1 (yes) for active, 0 (no) for inactive

Input: Could you check what this test reported for Cn1nc(C(C)(C)C)cc1NC(=O)Cc1ccc(/C=C2\C(=O)Nc3ccccc32)cc1 ?
Output: 0 (no)

Input: Assay result, entry CC(=O)c1ccc(Cc2ccc(C(C)=O)s2)s1 — outcome?
Output: 0 (no)

Input: I'd appreciate the recorded outcome for COc1cc2nc(NC3CCC3)nc(NC3CCN(C(C)C)CC3)c2cc1OC from this test.
Output: 0 (no)

Input: Check the results log: what was the call for O=NN(C(=O)NC1CCC(C(=O)O)CC1)C1CCC(C(=O)O)CC1 (stereo unspecified) ?
Output: 0 (no)

Input: Just curious, what result did COc1ccc(/C=C/C(=O)c2c(C)nc3ccccc3c2/C=C/c2ccccc2)cc1O get here?
Output: 0 (no)

Input: Assay outcome for O=C(/C=C/c1ccc(C(F)(F)F)cc1)c1ccc(Nc2nc(NCCO)nc(Nc3ccc(Cl)cc3)n2)cc1 : what was it?
Output: 0 (no)

Input: Record lookup: outcome of this test for COc1cccc(/C=C/C(=O)c2c(C)nc3ccccc3c2/C=C/c2ccccc2)c1OC ?
Output: 0 (no)

Input: Look up the recorded call for O=C(Nc1ccc(Cl)cc1F)c1cc(I)ccc1O in this test.
Output: 0 (no)

Input: Called result for CC(C)C[C@H](C(=O)N[C@H](C(N)=O)C(C)C)N1CC=CCN(OCc2ccccc2)S1(=O)=O
Output: 0 (no)

Input: I'd appreciate the recorded outcome for Nc1ccn(C2O[C@H](CO)[C@@H](O)[C@H]2O)c(=O)n1 (stereo partly specified) from this test.
Output: 0 (no)

Input: GET /call?item= CC1=C(C(=O)OCC2CCN(C(=O)OC(C)(C)C)CC2)[C@@H](c2cccc(C#N)c2)C2=C(CC(C)(C)CC2=O)N1 returns the recorded outcome of this test.
Output: 0 (no)

Input: Fill in: this test's call for CCOc1ccccc1CN1CCc2nc3cc(C(C)(C)C)[nH]n3c(=O)c2C1 is ___
Output: 0 (no)

Input: Dear colleague, could you share the recorded outcome for O=c1oc2ccc(F)cc2c(=O)n1-c1ccc(Cl)cc1F when you have a moment?
Output: 1 (yes)

Input: Identify the outcome logged in this assay for the compound shown: Cc1c(-c2csc(-n3nc(C(F)(F)F)cc3C(F)(F)F)n2)no[n+]1[O-]
Output: 0 (no)

Input: Write down the call the test reported for this compound. Item: COc1ccc(-c2nsc3c2NC(=O)CC3c2ccsc2)cc1 (stereo unspecified)
Output: 0 (no)

Input: Outcome? CSc1nc2c(c(=O)[nH]1)N=C1c3ccccc3C(=O)C1C(c1ccccc1)N2 (stereo unspecified)
Output: 0 (no)

Input: Which result was noted for this compound in the test: CNCCNc1nc2ccccc2c2c(=O)c3cc(OC)ccc3sc12
Output: 0 (no)

Input: Lab log entry: Cc1nc2ccccc2c(/C=C/c2ccccc2)c1C(=O)/C=C/c1ccc(Cl)cc1 — outcome as called in the assay?
Output: 1 (yes)

Input: Per the records of this test, what outcome belongs to O=C1c2ccccc2C(=O)c2c1ccc1[nH]c(CCl)nc21 ?
Output: 0 (no)

Input: Hi, do you know how COc1cc(NC(=O)CCSc2nc3ccccc3c(=O)n2Cc2ccccc2)cc(OC)c1OC came out in this test?
Output: 0 (no)

Input: Recorded call for Nc1nc(Nc2cccc(F)c2)nc2ccccc12 ?
Output: 0 (no)
